Substrate: BHET
Conditions: 120 h
Observable: plate clearing

unnamed (protein) MLLVSANALSYTPAPVANPAPIAAPAPCQDCDFNRGPNPTNSSVERLGPYSVATQRVSSSVSGFGGGTIHYPTNIAGKVGAIAVVPGFVSPESSIRWWGPQLASHGFVVITIATNSIFDQPSSRERQLGRALDYVINQTNSSGTAISGLVDTNRLGAMGWSMGGGGSLRLANGGRLSAVIPLAPWNEGASGFSQLTTPTLVVACENDLIAPVRVHASPFYNVIPNTTDKAFLEVNNGSHSCANGGGVNGGLLSKYGVSWMKRFIDEDTRYQQFLCGPNHSANPAISEYRDTCNY
not clears the plate
unnamed (protein) MKTTQFLRTAVCTFTLSFSLTAFSGGGGGSSDNDGNLPTPNSCTSNCGFEIGPNPNLNFVRASQGPLPVSTTTVASSVDGFGGGTIYYPSNISDEVAAIAISPGFTARQSSIAWWGPILASHGFVVITIDTNSRFDQPDSRGRQLDSSLSYLINESNRSNSPISGRVDDSRLAAMGHSMGGGGSLRSAARNRLSAAMPLAPFRVGGNDFDQIRVPTMIMACENDVVAPVGVHARPFYNRIPGSTDKVLLEINNGSHSCANGESSGNRPLLSTYGVSWMKRFLDKDRRYNQFLCGPNHEANSQISDFRDTCNF
not clears the plate
